target-or-test-system: Dual specificity protein kinase CLK2 (Mus musculus)
Sequence (O35491 whole entry, the tested form may be a part): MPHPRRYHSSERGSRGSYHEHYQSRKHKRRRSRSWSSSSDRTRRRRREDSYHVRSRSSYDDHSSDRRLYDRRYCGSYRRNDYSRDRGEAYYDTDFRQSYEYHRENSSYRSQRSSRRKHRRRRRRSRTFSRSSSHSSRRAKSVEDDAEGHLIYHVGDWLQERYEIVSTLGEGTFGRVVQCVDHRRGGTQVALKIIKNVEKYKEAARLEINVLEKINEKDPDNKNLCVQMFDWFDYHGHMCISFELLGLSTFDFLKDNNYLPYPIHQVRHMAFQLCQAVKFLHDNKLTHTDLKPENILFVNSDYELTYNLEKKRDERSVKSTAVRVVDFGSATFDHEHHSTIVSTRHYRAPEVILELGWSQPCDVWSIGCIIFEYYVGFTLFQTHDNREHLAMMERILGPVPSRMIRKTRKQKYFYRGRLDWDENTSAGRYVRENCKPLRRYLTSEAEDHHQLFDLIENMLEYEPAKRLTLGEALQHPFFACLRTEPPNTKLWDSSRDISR
assay-notes: Inhibition of mouse recombinant GST-fused CLK2 expressed in Escherichia coli using GRSRSRSRSRSR peptide as substrate incubated for 30 mins in presence of ATP by scintillation counting method

compound | target-or-test-system | IC50
O=C1NC(Nc2ccc(N3CCNCC3)cc2)=N/C1=C\c1ccc2c(c1)OC=CO2 | Dual specificity protein kinase CLK2 (Mus musculus) | 2300 nM
Cn1cc(Cc2ccc3c(c2)OCO3)nc1N | Dual specificity protein kinase CLK2 (Mus musculus) | > 10000 nM
O=C1NC(Nc2ccccc2)=NC1Cc1ccc2c(c1)OCO2 (centres undefined) | Dual specificity protein kinase CLK2 (Mus musculus) | > 10000 nM
O=C1NC(Nc2ccccc2)=N/C1=C\c1ccc2c(c1)CCO2 | Dual specificity protein kinase CLK2 (Mus musculus) | 120 nM
